# TARGET OR SYSTEM: T1, recombinant RSV-F protein (RSV A2 strain fusion (F) protein with added His tag) (human respiratory syncytial virus, A2 …, UniProt P03420 26-524)
# T1 construct: also called RSV-F recombinant protein
# T1 sequence (P03420 26-109, chain 1 of 2): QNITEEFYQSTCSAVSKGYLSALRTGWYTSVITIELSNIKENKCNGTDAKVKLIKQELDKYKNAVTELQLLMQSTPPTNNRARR
# T1 sequence (P03420 137-524, chain 2 of 2): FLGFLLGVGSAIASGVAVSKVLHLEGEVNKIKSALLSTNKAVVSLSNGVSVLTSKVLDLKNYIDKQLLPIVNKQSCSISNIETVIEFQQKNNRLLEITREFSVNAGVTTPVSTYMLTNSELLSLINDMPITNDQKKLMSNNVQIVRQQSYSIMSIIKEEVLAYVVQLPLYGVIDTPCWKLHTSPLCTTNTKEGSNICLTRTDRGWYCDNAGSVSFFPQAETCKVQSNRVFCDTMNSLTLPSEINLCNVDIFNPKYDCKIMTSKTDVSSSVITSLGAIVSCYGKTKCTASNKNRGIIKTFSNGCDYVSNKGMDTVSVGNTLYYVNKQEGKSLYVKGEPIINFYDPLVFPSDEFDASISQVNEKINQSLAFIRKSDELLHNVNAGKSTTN
# ASSAY NAME: SPR (Biacore), antibody captured, RSV-F as analyte
PROPERTY LABEL: kon (M⁻¹ s⁻¹)
Give bare numbers, in M⁻¹ s⁻¹.

**Query** Which kon value is on record for A2-P (antibody, V domains shown, also called humanized mutant antibody A2-P) VH: QVTLKESGPALVKPTQTLTLTCTFSGFSLSTSGMGVSWIRQPPGKALEWLAHIYWDDDKNFNPSLRSRLTITKDPSKNQVVLTMTNMDPVDTATYFCARKLYNDYDYILDYWGQGTTVTVSS VL: DIVMTQSPLSLPVTPGEPASISCRSSKSLLHSNGITYLPWFLQKPGQSPQLLIYQMSNLASGVPDRFSGSGSGTDFTLKISRVEAEDVGVYYCAQNLELWTFGQGTRLEIK ?
**Result** 3.57e+06
